The origin of these recorded values is patent US20230357429A1.

Reported values of pEC50 for individual entries
target.of.assay: T1, Peptide-38 (cysteine pairing not given here; also: biotinylated, site not given here)
T1 peptide: VDFCSIYHWPVCYV
test.description: ELISA, Fab on captured biotin-peptide
Where no end group is shown, it is not given here.
Conceptually, pEC50 converts a concentration in mol/L into minus its log10.

q: Sample TBD-17 (HC S104A) (Fab, V domains shown, Fab; also called HC S104A mutant) VH: QVQLQQSGSELKKPGASVKVSCKASGYTFTNYGMNWVKQAPGQGLKWMGWINTYTGEPTYTDDFKGRFAFSLDTSVSTAYLQISSLKADDTAVYFCARGGFGSAYWYFDVWGQGSLVTVSS VL: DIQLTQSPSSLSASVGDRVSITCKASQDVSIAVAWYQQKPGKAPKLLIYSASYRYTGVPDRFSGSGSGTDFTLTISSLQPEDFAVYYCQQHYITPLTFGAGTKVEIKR — what was its pEC50?
a: 7.50

q: pEC50 lookup needed for TBD-11 (HC R98A) (Fab, V domains shown, Fab; also called HC R98A mutant) VH: QVQLQQSGSELKKPGASVKVSCKASGYTFTNYGMNWVKQAPGQGLKWMGWINTYTGEPTYTDDFKGRFAFSLDTSVSTAYLQISSLKADDTAVYFCAAGGFGSSYWYFDVWGQGSLVTVSS VL: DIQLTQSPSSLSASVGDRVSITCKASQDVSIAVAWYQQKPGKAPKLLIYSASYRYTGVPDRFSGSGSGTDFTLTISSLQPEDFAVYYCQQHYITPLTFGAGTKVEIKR , thanks.
a: 6.54

q: Look up pEC50 for this binder: TBD-1 wt (Fab, V domains shown, Fab; the heavy chain entry is VH-CH1; also called wild-type anti-TROP2 Fab (hRS7); TROP2 Fab) VH: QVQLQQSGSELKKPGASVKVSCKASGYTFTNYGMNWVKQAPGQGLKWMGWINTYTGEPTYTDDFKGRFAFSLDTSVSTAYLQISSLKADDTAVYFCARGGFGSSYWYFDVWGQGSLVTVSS VL: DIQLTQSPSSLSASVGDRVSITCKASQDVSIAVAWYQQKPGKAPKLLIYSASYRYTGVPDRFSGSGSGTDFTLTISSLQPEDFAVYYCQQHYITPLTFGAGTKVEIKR
a: 6.75
